# targetOrSystem: Beta-3 adrenergic receptor (Homo sapiens)
# Sequence (P13945 whole entry, looked up): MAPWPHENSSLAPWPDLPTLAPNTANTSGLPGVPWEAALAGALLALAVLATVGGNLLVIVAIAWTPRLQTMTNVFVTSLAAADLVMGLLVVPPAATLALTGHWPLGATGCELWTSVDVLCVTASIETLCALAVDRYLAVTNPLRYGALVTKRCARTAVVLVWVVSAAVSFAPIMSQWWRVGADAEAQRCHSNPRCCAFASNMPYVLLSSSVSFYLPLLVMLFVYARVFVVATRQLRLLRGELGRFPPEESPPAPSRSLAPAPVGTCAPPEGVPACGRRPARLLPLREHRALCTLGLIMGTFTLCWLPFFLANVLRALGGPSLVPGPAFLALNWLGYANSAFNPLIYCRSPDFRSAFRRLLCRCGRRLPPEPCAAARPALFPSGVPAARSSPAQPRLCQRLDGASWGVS
# testName: Adenylyl cyclase activation at human beta-3 adrenergic receptor (AR)
# Format: functional
# Set-up: concentration or dose not given beside the values
resultType: Activation (%)

Example entries begin here.
COc1cc(-c2ccc(CC3NCCc4cc(O)c(O)cc43)cc2)cc(OC)c1OC (stereo not given)
77
CCCCCCNC(=O)Nc1ccc(S(=O)(=O)Nc2ccc(-c3ccc(OCC4NCCc5cc(O)c(O)cc54)cc3)cc2)cc1 (stereo not given)
72
CCCCCCNC(=O)Nc1ccc(S(=O)(=O)Nc2cccc(-c3cccc(CC4NCCc5cc(O)c(O)cc54)c3)c2)cc1 (stereo not given)
62
CCCCCCNC(=O)Nc1ccc(S(=O)(=O)Nc2ccc(-c3cccc(CC4NCCc5cc(O)c(O)cc54)c3)cc2)cc1 (stereo not given)
64
COc1cc(C[C@@H]2NCCc3cc(O)c(O)cc32)cc(OC)c1OC [TRETOQUINOL]
92

a. COc1c(I)cc(CC2NCCc3nc(N)sc32)cc1I (stereo not given)
b. CCCCCCNC(=O)Nc1ccc(S(=O)(=O)Nc2ccc3cc(OCC4NCCc5cc(O)c(O)cc54)ccc3c2)cc1 (stereo not given)
**Query** Pick one: a or b . Which has the bigger Activation number? Answer = label.
**Result** b
(b: 72%, a: 36%)

---

# targetOrSystem: Beta-1 adrenergic receptor (Homo sapiens, UniProt P08588)
# testName: Compound was evaluated for its inhibitory activity against CHO cells expressing the cloned human Beta-1 adrenergic receptor in the presence of [125I]iodocyanopindolol
# Assay type: cell-based
# Sequence (P08588 whole entry): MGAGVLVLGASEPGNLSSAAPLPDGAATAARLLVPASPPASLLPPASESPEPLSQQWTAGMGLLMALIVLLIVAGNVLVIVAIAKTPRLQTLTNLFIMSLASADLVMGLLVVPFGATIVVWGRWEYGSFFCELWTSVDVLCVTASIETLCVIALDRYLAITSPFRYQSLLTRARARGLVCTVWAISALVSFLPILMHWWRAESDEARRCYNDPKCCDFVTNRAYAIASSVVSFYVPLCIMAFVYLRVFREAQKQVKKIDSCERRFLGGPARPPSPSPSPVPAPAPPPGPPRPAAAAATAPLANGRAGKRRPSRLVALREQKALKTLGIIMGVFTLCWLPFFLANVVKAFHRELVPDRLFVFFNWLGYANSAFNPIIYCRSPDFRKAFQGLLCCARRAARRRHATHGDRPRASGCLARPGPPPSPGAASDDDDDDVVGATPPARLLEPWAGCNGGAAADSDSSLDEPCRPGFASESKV
resultType: IC50 (nM)

Example entries begin here.
CCCCCCNC(=O)Nc1ccc(S(=O)(=O)Nc2ccc(-c3ccc(OCC4NCCc5cc(O)c(O)cc54)cc3)cc2)cc1 (stereo unspecified)
2000
CCCCCCNC(=O)Nc1ccc(S(=O)(=O)Nc2ccc(CC3NCCc4cc(O)c(O)cc43)cc2)cc1 (stereo unspecified)
1200
CCCCCCNC(=O)Nc1ccc(S(=O)(=O)Nc2ccc(OCC3NCCc4cc(O)c(O)cc43)cc2)cc1 (stereo unspecified)
1000

A. CCCCCCNC(=O)Nc1ccc(S(=O)(=O)Nc2cccc(-c3ccc(OCC4NCCc5cc(O)c(O)cc54)cc3)c2)cc1 (stereo unspecified)
B. CCCCCCNC(=O)Nc1ccc(S(=O)(=O)Nc2ccc3cc(CC4NCCc5cc(O)c(O)cc54)ccc3c2)cc1 (stereo unspecified)
C. CCCCCCNC(=O)Nc1ccc(S(=O)(=O)Nc2ccc3cc(OCC4NCCc5cc(O)c(O)cc54)ccc3c2)cc1 (stereo unspecified)
**Query** Could you please order the items by IC50, going from the lowest number to the highest? Use the labels to give the requested order.
**Result** B, A, C
(B: 1000 nM, A: 6500 nM, C: 80000 nM)

---

# targetOrSystem: Beta-1 adrenergic receptor (Homo sapiens)
# testName: Compound was evaluated for its adenylyl cyclase activation at human beta-1 adrenergic receptor (AR)
# Format: functional
# Set-up: concentration or dose not given beside the values
# Sequence (P08588 whole entry, looked up): as the sequence (P08588 whole entry) above
resultType: Activation (%)

CCCCCCNC(=O)Nc1ccc(S(=O)(=O)Nc2ccc(-c3cccc(CC4NCCc5cc(O)c(O)cc54)c3)cc2)cc1 (stereo not given)
12

A. CCCCCCNC(=O)Nc1ccc(S(=O)(=O)Nc2cccc(-c3cccc(CC4NCCc5cc(O)c(O)cc54)c3)c2)cc1 (stereo not given)
B. CCCCCCNC(=O)Nc1ccc(S(=O)(=O)Nc2ccc(-c3ccc(CC4NCCc5cc(O)c(O)cc54)cc3)cc2)cc1 (stereo not given)
C. CCCCCCNC(=O)Nc1ccc(S(=O)(=O)Nc2cccc(-c3ccc(CC4NCCc5cc(O)c(O)cc54)cc3)c2)cc1 (stereo not given)
**Query** Could you please order the items by Activation, going from the lowest number to the highest? Use the labels to give the requested order.
**Result** A, B, C
(A: 22%, B: 44%, C: 69%)
